Values were extracted from patent US20120135912A1.

Target: T1, human LPAM-1-Fc (alpha4-Fc/beta7-Fc heterodimer) (human)
T1 construct: Soluble heterodimer from CHO cells, Protein A purified
T1 sequence (chain, as listed by the source limits assumed, chain 1 of 2): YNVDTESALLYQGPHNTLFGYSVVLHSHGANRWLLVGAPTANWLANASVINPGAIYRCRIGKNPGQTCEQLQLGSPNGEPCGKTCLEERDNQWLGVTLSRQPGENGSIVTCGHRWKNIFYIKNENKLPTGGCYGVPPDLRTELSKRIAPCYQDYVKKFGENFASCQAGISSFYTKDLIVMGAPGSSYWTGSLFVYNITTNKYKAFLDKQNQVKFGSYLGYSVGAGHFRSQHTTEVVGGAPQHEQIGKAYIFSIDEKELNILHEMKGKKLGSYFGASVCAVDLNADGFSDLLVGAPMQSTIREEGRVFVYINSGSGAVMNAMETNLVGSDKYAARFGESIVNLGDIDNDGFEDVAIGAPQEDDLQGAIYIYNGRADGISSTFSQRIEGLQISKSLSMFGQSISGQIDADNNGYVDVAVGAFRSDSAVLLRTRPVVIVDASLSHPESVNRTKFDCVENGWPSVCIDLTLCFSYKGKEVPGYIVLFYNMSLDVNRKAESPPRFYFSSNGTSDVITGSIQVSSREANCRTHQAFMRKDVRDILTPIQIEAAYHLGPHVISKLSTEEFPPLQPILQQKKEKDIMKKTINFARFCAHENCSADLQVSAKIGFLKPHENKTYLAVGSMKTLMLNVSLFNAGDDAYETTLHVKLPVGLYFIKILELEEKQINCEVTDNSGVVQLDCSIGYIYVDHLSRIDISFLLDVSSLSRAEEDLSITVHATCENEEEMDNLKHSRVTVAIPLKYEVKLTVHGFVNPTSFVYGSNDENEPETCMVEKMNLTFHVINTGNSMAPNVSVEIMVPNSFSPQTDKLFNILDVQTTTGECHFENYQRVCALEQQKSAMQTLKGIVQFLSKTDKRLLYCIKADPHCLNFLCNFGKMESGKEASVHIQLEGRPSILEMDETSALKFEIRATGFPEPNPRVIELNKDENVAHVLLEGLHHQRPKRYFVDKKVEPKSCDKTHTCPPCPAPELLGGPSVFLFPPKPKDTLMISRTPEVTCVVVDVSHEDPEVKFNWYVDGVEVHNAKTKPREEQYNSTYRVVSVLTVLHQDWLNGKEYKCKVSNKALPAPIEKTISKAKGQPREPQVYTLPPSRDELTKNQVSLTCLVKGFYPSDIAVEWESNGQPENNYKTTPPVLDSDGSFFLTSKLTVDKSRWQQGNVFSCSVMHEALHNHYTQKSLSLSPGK
T1 sequence (chain, as listed by the source limits assumed, chain 2 of 2): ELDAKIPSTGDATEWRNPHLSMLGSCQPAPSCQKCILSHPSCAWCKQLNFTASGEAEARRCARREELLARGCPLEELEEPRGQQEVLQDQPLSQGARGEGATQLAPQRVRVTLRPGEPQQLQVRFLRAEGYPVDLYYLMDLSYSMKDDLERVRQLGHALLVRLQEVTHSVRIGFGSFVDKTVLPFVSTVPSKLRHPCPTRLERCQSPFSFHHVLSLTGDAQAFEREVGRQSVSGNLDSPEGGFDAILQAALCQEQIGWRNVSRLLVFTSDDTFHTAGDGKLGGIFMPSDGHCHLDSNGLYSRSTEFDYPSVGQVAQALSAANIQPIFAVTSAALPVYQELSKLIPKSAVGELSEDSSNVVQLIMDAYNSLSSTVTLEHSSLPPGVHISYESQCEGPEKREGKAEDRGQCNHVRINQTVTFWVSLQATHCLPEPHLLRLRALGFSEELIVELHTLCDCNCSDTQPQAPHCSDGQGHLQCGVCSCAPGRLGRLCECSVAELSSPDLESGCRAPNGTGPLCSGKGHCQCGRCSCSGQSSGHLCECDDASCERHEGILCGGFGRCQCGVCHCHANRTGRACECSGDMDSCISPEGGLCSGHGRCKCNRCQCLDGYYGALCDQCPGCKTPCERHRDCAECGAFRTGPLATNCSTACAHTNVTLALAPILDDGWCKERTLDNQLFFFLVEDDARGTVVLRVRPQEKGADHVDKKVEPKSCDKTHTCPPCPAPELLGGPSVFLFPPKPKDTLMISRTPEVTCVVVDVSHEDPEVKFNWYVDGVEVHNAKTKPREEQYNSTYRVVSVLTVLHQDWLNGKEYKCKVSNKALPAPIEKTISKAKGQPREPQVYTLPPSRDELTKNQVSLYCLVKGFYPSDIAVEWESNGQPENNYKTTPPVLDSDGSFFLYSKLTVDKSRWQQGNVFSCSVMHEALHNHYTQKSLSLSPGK
Experiment: SPR (BIACORE), LPAM-1-Fc captured by anti-human IgG, 1 mM MnCl2, 1:1 Langmuir
Protocol: The kinetic 2D-VCAM-1 assay measures binding kinetics of a dimeric ligand (e.g., VLA-Fc fusion protein or LPAM-1-Fc fusion protein) coated to sensor chips and monomeric analyte (e.g., 2D-VCAM-1 variant polypeptides) in the mobile phase. […] Typically, 8 dilutions of 2D-VCAM-1 variant polypeptides ranging from 150 nM to 0.069 nM were analyzed against a blank reference (HBS-P-Mn buffer alone).
VALUE KIND: pKd
Numbers only, as −log10 of the molar value.

Dear colleague, could you send me pKd for each of the items below? Thanks.
1. 2D-VCAM-1 variant Clone 46 (ligand, also called Clone 046; not shown: His tag) FKIETTPESRYLAQIGDSVSLTCSTTGCESPFFSWRPQLDAPLNGKVTNEGTTSTLTMNPVSFGNEHSYLCTATCESRKLEKGIQVEIYSFPKDPEIHLSGPLEAGKPITVKCSVADVYPFDRLEIDLLKGDHLMKSQEFLEDADRKSLETKSLEVTFTPVIEDIGKVLVCRAKLHIDEMDSVPTVRQAVKELQVYISP
2. human 2D-VCAM-1 (ligand, also called wild type 2D-VCAM-1; wt-2D-VCAM-1; not shown: His tag) FKIETTPESRYLAQIGDSVSLTCSTTGCESPFFSWRTQIDSPLNGKVTNEGTTSTLTMNPVSFGNEHSYLCTATCESRKLEKGIQVEIYSFPKDPEIHLSGPLEAGKPITVKCSVADVYPFDRLEIDLLKGDHLMKSQEFLEDADRKSLETKSLEVTFTPVIEDIGKVLVCRAKLHIDEMDSVPTVRQAVKELQVYISP

Response:
1: 7.57; 2: 6.61
